Target: papain (Carica papaya, UniProt P00784)
Construct: purchased Sigma Chem. Co
Sequence (P00784 134-345): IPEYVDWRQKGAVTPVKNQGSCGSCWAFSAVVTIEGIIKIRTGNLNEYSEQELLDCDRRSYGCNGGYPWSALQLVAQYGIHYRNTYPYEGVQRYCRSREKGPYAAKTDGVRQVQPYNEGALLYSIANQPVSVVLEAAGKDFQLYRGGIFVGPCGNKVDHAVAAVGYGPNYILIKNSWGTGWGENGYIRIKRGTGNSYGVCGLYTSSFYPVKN
Assay: Papain inhibitory activity (milk casein digestion)
Format: biochemical
Details: papain 80 μg/ml 0.5 ml, cysteine, pH 6.8, 1% milk casein, 40° C., 10 minutes
endpoint.name: ID50 (amount of inhibitor for 50% inhibition)

Q. Provide ID50 (amount of inhibitor for 50% inhibition), tested on papain (Carica papaya, UniProt P00784), for CCOC(=O)CNC(=O)[C@@H]1O[C@H]1C(=O)OCc1ccc2c(Br)cccc2c1 (relative stereo) .
A. 9.86 γ

Q. Provide ID50 (amount of inhibitor for 50% inhibition), tested on papain (Carica papaya, UniProt P00784), for O=C(O)[C@@H]1O[C@H]1C(=O)OCC1CCCCC1 (relative stereo) .
A. 0.06 γ

Q. Provide ID50 (amount of inhibitor for 50% inhibition), tested on papain (Carica papaya, UniProt P00784), for O=C(OCc1cccs1)[C@@H]1O[C@H]1C(=O)OCc1cccs1 (relative stereo) [EP-79, di-2-thenyl epoxysuccinate] .
A. 0.75 γ

Q. Provide ID50 (amount of inhibitor for 50% inhibition), tested on papain (Carica papaya, UniProt P00784), for Cc1cc(C)c(COC(=O)[C@@H]2O[C@H]2C(=O)O)c(C)c1 (relative stereo) .
A. 0.37 γ
